Listed here: items and their measured pIC50.
Target: human cannabinoid CB1 receptor (Homo sapiens, UniProt P21554)
Construct: expressed in transfected cells; host or cells: Chinese hamster ovary (CHO) cells, stably transfected; membrane preparation
Sequence (P21554 whole entry): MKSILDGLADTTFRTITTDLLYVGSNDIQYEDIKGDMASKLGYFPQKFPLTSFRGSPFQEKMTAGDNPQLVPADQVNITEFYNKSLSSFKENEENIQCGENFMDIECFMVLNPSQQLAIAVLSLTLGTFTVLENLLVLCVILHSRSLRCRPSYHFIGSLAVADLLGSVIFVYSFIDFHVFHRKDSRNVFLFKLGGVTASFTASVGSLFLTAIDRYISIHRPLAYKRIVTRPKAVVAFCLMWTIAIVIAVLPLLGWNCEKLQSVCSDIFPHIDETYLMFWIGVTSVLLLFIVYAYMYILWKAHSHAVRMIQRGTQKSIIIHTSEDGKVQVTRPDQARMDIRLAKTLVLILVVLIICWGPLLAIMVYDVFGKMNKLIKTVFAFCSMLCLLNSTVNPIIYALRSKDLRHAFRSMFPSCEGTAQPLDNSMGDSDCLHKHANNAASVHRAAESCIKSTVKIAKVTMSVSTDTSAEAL
Assay: CB1 receptor affinity, [3H]CP-55,940 radioligand binding to CHO cell membranes
Conditions: Table B; read-out: CB1 Receptor Activity
pIC50: −log10 of the molar value.

Field: example entries. Status: answers known.
INSERT INTO assay_data (molecule, observed_result) VALUES
  ('Cc1c(C(=O)NC(C)CC(N)=O)nn(-c2ccc(Cl)cc2Cl)c1-c1ccc(Cl)cc1 (stereo not drawn)', '> 5.00'),
  ('Cc1c(C(=O)NCc2cccc(C(N)=O)c2)nn(-c2ccc(Cl)cc2Cl)c1-c1ccc(Cl)cc1', '> 6.00'),
  ('Cc1c(C(=O)NC(CC(C)C)C(N)=O)nn(-c2ccc(Cl)cc2Cl)c1-c1ccc(Cl)cc1 (stereo not drawn)', '> 6.00'),
  ('Cc1c(C(=O)NCc2ccc(C(=N)N)cc2)nn(-c2ccc(Cl)cc2Cl)c1-c1ccc(Cl)cc1', '> 5.00'),
  ('Cc1c(C(=O)NCCC(N)=O)nn(-c2ccc(Cl)cc2Cl)c1-c1ccc(Cl)cc1', '> 5.00'),
  ('CCC(C)C(NC(=O)c1nn(-c2ccc(Cl)cc2Cl)c(-c2ccc(Cl)cc2)c1C)C(N)=O (stereo not drawn)', '> 7.00'),
  ('Cc1c(C(=O)NCc2cccc(C(=N)N)c2)nn(-c2ccc(Cl)cc2Cl)c1-c1ccc(Cl)cc1', '> 6.00'),
  ('Cc1c(C(=O)NCc2ccc(C(N)=O)cc2)nn(-c2ccc(Cl)cc2Cl)c1-c1ccc(Cl)cc1', '> 6.00');

Prompt line: Which measured pIC50 belongs to Cc1c(C(=O)NC(Cc2ccccc2)C(N)=O)nn(-c2ccc(Cl)cc2Cl)c1-c1ccc(Cl)cc1 (stereo not drawn) , tested on human cannabinoid CB1 receptor (Homo sapiens, UniProt P21554)?
Response line: > 7.00

----------
Collected IC50 values appear next to each entry.
Biological target: human cannabinoid CB1 receptor (Homo sapiens)
Construct: expressed in transfected cells; host or cells: Chinese hamster ovary (CHO) cells, stably transfected; membrane preparation
Experiment: CB1 receptor affinity, [3H]CP-55,940 radioligand binding to CHO cell membranes
Details: Table A; read-out: CB1 Receptor Activity

Example compounds with recorded IC50:
INSERT INTO assay_data (compound, observed_result) VALUES
  ('Cc1c(C(=O)NC(CC(C)C)C(=O)O)nn(-c2ccc(Cl)cc2Cl)c1-c1ccc(Cl)cc1 (centres unmarked)', '< 1000 nM'),
  ('CCOC(=O)CNC(=O)c1nn(-c2ccc(Cl)cc2Cl)c(-c2ccc(Cl)cc2)c1C', '< 10000 nM'),
  ('CCOC(=O)C(Cc1ccccc1)NC(=O)c1nn(-c2ccc(Cl)cc2Cl)c(-c2ccc(Cl)cc2)c1C (centres unmarked)', '< 1000 nM'),
  ('Cc1c(C(=O)NC(C(=O)O)C(C)(C)C)nn(-c2ccc(Cl)cc2Cl)c1-c1ccc(Cl)cc1 (centres unmarked)', '< 100 nM');

Okay, next one:
Prompt line: Given the entry CCOC(=O)CCCNC(=O)c1nn(-c2ccc(Cl)cc2Cl)c(-c2ccc(Cl)cc2)c1C , report its measured IC50.
Response line: < 10000 nM
